- experimental.system: T1, recombinant His-tagged human FRα (human, UniProt P15328 25-234)
- T1 construct: Bought protein; also called hFRα; FRα-HIS
- T1 sequence (P15328 25-234 limits assumed): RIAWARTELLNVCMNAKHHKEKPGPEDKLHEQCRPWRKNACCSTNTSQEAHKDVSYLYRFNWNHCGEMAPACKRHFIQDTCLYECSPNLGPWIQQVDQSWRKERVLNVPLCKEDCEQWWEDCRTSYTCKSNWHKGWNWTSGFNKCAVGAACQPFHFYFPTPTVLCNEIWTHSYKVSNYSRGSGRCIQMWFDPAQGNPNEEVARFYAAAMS
- experiment.description: BLI, purified, average n=2
assay.metric: Kd (nM)
Express the result in nM but write the number alone.

v23812 (antibody, human IgG1, kappa, V domains shown, also called humanized 8K22 H4L4) VH: EVQLVESGGGLVQPGGSLRLSCAASGFTISNNYYMCWVRQAPGKGLEWIACIYGGISGRTYYADSAKGRFTISKDSSNTVYLQMNSLRAEDTAVYYCVRGYVGTSNLWGQGTLVTVSS VL: DIQMTQSPSSLSASVGDRVTITCQASQSIYSSLAWYQQKPGKAPKLLIYDASHLASGVPSRFSGSGSGTDFTLTISSVQPEDAATYYCQGGWYSSAATYVPNTFGGGTKVEVKR :: 8.74

Could you share which Kd value was measured for v23817 (antibody, human IgG1, kappa, V domains shown, also called humanized 8K22 H4L5) VH: EVQLVESGGGLVQPGGSLRLSCAASGFTISNNYYMCWVRQAPGKGLEWIACIYGGISGRTYYADSAKGRFTISKDSSNTVYLQMNSLRAEDTAVYYCVRGYVGTSNLWGQGTLVTVSS VL: DIQMTQSPSSLSASVGDRVTITCQASQSIYSSLAWYQQKPGKAPKLLIYDASHLASGVPSRFSGSRYGTDFTLTISSVQPEDAATYYCQGGWYSSAATYVPNTFGGGTKVEVKR ?
6.41

I have this binder here, v23807 (antibody, human IgG1, kappa, V domains shown, also called humanized 8K22 H4L3) VH: EVQLVESGGGLVQPGGSLRLSCAASGFTISNNYYMCWVRQAPGKGLEWIACIYGGISGRTYYADSAKGRFTISKDSSNTVYLQMNSLRAEDTAVYYCVRGYVGTSNLWGQGTLVTVSS VL: DIQMTQSPSSLSASVGDRVTITCQASQSIYSSLAWYQQKPGKAPKLLIYDASHLASGVPSRFSGSRYGTDFTLTISSVQPEDFATYYCQGGWYSSAATYVPNTFGGGTKVEVKR , and I need its recorded Kd.
7.07
